- SYSTEM UNDER TEST: RNA-directed RNA polymerase (Hepacivirus hominis, UniProt O39930)
- Sequence (O39930 whole entry): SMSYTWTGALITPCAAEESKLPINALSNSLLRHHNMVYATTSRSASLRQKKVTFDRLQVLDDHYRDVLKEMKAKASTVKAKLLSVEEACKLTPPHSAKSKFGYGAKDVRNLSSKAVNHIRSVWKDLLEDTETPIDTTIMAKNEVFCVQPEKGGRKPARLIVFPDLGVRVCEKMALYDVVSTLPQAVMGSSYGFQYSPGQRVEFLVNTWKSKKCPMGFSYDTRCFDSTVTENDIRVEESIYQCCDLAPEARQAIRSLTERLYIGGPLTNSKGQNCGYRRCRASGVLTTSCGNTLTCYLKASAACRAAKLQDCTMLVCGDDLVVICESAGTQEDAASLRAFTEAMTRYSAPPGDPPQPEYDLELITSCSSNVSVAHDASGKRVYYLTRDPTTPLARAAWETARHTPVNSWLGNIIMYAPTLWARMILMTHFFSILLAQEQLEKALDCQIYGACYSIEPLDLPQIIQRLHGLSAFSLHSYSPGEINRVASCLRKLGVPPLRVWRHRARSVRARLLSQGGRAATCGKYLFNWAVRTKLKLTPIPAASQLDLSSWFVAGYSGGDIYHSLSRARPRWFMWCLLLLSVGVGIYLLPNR
- RUN DESCRIPTION: Inhibition of wild-type HCV genotype 1b BK NS5B Cdelta55 RNA dependent RNA polymerase using RNA as substrate after 1 hr in presence of NTPs by [33P]-CTP based topcount assay
Overview of recorded IC50 for various molecules
Please respond with the number in nM and leave the unit unwritten.

Before answering, review these 2 worked examples.
- CC#C[C@@]1(O)[C@H](O)[C@@H](COP(=O)(O)OP(=O)(O)OP(=O)(O)O)O[C@H]1n1ccc(=O)[nH]c1=O: 160
- C#C[C@@]1(O)[C@H](O)[C@@H](COP(=O)(O)OP(=O)(O)OP(=O)(O)O)O[C@H]1n1ccc(=O)[nH]c1=O: 90

Now for the molecule whose IC50 we want.
Input line: Give the measured IC50 of `C#C[C@]1(O)[C@H](O)[C@@H](COP(=O)(O)OP(=O)(O)OP(=O)(O)O)O[C@H]1n1ccc(=O)[nH]c1=O` .
Output line: 54000

---

Overview of recorded IC50 for various molecules
- SYSTEM UNDER TEST: RNA-directed RNA polymerase (Hepacivirus hominis)
- RUN DESCRIPTION: Inhibition of wild-type HCV genotype 1b BK NS5B Cdelta55 RNA dependent RNA polymerase using RNA as substrate after 1 hr in presence of NTPs by [33P]-CTP based topcount assay
Please respond with the number in µM and leave the unit unwritten.

• C#C[C@@]1(F)[C@H](O)[C@@H](COP(=O)(O)OP(=O)(O)OP(=O)(O)O)O[C@H]1n1ccc(=O)[nH]c1=O = 3.6

Input line: Provide value of IC50 for this record tested with RNA-directed RNA polymerase (Hepacivirus hominis): `CCCCCCN(C)C.CCCCCCN(C)C.CCCCCCN(C)C.CCCCCCN(C)C.C[C@@]1(F)[C@H](O)[C@@H](COP(=O)(O)OP(=O)(O)OP(=O)(O)O)O[C@H]1n1ccc(=O)[nH]c1=O`
Output line: 1.1

Input line: Provide value of IC50 for this record tested with RNA-directed RNA polymerase (Hepacivirus hominis): `CC#C[C@@]1(F)[C@H](O)[C@@H](COP(=O)(O)OP(=O)(O)OP(=O)(O)O)O[C@H]1n1ccc(=O)[nH]c1=O`
Output line: 9.9

---

Overview of recorded EC50 for various compounds
- System: Hepatitis C virus
- RUN DESCRIPTION: Antiviral activity against HCV genotype 1b Con1 infected in replicon cells after 3 days by real-time PCR analysis
- Assay type: functional, organism-based, Hepacivirus hominis
- CONDITION INFO: isolate Con1, 72 h

• CC#C[C@@]1(F)[C@H](O)[C@@H](CO)O[C@H]1n1ccc(=O)[nH]c1=O = > 100 µM

Input line: Give the measured EC50 of `C#C[C@@]1(O)[C@H](O)[C@@H](CO)O[C@H]1n1ccc(=O)[nH]c1=O` .
Output line: > 100 µM

Input line: Give the measured EC50 of `CC#C[C@@]1(O)[C@H](O)[C@@H](CO)O[C@H]1n1ccc(=O)[nH]c1=O` .
Output line: > 100 µM
